Source: patent US12209135B2

Biological target: T1, human CD45 ectodomain (Homo sapiens, UniProt P08575)
T1 construct: purified human, rhesus or cynomolgus CD45 ectodomain
T1 sequence (P08575 26-577): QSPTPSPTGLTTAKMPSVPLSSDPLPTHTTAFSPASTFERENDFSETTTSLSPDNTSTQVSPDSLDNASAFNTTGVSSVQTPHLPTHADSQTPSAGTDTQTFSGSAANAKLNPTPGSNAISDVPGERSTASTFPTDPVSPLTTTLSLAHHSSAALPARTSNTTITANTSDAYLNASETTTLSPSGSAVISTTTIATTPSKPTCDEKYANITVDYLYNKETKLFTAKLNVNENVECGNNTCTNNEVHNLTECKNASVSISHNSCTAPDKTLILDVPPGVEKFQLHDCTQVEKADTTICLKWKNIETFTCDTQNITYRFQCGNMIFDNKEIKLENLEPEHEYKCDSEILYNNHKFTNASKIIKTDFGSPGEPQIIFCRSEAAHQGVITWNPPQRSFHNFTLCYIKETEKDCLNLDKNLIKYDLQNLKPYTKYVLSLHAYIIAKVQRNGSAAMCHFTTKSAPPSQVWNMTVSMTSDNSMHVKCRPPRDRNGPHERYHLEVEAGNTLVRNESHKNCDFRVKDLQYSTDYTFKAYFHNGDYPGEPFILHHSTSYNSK
Test: Biolayer interferometry (BLI, Octet) binding of immobilized IgG to purified CD45 ectodomain
Conditions: Table 2, Human CD45
Recorded Kon by entry
reportedProperty: Kon (M⁻¹ s⁻¹)

molecule="Ab7: variant of Ab3 with asparagine to serine substitution in CDR-L1; VH SEQ ID NO:61, VL SEQ ID NO:65 (antibody, V domains shown) VH: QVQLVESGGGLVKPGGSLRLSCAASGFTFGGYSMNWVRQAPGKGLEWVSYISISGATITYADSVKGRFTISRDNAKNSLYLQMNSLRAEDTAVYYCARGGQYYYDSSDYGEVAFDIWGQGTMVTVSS VL: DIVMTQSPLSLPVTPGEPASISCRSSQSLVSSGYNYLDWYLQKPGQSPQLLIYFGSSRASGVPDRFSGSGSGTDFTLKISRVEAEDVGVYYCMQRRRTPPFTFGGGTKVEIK" reportedproperty=Kon endpointvalue=264000
molecule="Ab2: affinity matured human anti-CD45 IgG derived from Ab1; VH SEQ ID NO:11, VL SEQ ID NO:15 (antibody, V domains shown) VH: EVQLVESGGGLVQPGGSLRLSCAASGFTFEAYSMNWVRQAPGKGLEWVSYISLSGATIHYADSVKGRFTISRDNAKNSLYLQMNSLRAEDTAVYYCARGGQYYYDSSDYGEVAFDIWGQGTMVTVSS VL: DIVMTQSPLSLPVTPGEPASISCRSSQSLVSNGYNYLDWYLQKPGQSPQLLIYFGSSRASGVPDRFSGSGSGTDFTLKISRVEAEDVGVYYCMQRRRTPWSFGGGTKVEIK" reportedproperty=Kon endpointvalue=245000
molecule="Ab5: variant of Ab4 with asparagine to serine substitution in CDR-L1; VH SEQ ID NO:41, VL SEQ ID NO:45 (antibody, V domains shown) VH: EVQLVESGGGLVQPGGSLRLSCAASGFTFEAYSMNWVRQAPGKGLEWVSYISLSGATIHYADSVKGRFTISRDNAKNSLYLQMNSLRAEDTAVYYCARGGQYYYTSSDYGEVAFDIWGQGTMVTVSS VL: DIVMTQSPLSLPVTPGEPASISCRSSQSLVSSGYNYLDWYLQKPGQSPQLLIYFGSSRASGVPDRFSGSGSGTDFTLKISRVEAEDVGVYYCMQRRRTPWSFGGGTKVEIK" reportedproperty=Kon endpointvalue=233000
molecule="Ab3: affinity matured human anti-CD45 IgG derived from Ab1; VH SEQ ID NO:21, VL SEQ ID NO:25 (antibody, V domains shown) VH: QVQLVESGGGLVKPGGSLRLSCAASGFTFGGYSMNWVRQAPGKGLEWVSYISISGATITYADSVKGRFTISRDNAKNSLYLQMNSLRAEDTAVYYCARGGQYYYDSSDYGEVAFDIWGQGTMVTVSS VL: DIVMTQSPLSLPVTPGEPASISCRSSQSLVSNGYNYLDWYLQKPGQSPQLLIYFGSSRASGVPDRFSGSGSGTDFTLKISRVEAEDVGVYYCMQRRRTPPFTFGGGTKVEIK" reportedproperty=Kon endpointvalue=260000
molecule="Ab6: affinity matured human anti-CD45 IgG derived from Ab1; VH SEQ ID NO:51, VL SEQ ID NO:55 (antibody, V domains shown) VH: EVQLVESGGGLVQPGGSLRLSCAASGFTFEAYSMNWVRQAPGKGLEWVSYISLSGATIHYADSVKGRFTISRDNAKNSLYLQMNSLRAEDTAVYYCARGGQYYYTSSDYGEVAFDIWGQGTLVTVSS VL: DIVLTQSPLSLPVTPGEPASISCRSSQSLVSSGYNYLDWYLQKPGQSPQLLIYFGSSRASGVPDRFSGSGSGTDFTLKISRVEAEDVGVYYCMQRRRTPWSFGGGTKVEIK" reportedproperty=Kon endpointvalue=242000
molecule="Ab4: affinity matured human anti-CD45 IgG derived from Ab1; VH SEQ ID NO:31, VL SEQ ID NO:35 (antibody, V domains shown) VH: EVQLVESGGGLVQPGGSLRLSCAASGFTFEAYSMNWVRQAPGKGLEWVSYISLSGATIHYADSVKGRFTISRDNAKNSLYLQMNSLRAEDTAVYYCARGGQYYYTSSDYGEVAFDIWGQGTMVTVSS VL: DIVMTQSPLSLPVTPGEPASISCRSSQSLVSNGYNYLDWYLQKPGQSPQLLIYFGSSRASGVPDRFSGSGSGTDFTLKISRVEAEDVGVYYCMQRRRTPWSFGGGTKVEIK" reportedproperty=Kon endpointvalue=236000
